Where do these numbers come from? They come from patent US20150152192A1.

# MEASURED_ON: T1, mouse Ang2 (Accession # NP-031452) (R&D Systems) (mouse, UniProt O35608 19-496, limits assumed)
# T1 construct: Bought protein; also called mAng2
# T1 sequence (looked up): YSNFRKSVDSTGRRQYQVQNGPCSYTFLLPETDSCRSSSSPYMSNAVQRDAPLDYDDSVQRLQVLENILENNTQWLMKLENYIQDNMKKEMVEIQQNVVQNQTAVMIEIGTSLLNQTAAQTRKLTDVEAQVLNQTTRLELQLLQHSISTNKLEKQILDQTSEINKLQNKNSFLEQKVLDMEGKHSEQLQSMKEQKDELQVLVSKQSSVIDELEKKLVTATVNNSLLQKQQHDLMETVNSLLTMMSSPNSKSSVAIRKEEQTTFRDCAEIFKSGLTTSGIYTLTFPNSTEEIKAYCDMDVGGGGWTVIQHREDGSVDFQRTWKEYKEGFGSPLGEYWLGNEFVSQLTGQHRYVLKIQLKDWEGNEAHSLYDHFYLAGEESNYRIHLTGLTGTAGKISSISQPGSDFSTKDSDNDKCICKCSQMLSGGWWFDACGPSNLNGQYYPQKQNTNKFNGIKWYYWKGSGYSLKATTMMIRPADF
# PROTOCOL_DESCRIPTION: ELISA, antigen coated, IgG, anti-hFc-HRP; 50% binding concentration (Kd)
Could you mark each record Met if its Kd falls strictly under 0.3 nM, and Not met if it equals or exceeds it?

[
  {
    "BINDER": "SAIT-ANG-2-AB-4-F11 (IgG form) (antibody, V domains shown, Intact human antibody with human IgG1 constant region) VH: EVQLLESGGGLVQTGGSLRLSCAASGFTFSDYAMSWVRQAPGKGLEWVSSIYPDDGNTYYADSVKGRFTISRDNSKNTLYLQMNSLRAEDTAVYYCAKHPVRLNLHPMYYYYGMDVWGQGTLVTVSS VL: QSVLTQPPSASGTPGQRVTISCTGSSSNIGNNAVSWYQQLPGTAPKLLIYSDSQRPSGVPDRFSGSKSGTSASLAISGLRSEDEADYYCATWDYSLSAYVFGGGTKLTVLG",
    "CLASS": "Not met"
  },
  {
    "BINDER": "SAIT-ANG-2-AB-4-C11 (IgG form) (antibody, V domains shown, Intact human antibody with human IgG1 constant region) VH: EVQLLESGGGLVQPGGSLRLSCAASGFTFSDYAMSWVRQAPGKGLEWVSSIYPDDGNTYYADSVKGRFTISRDNSKNTLYLQMNSLRAEDTAVYYCARHTSHHTSIDGYYYYGMDGWGQGTLVTVSS VL: QSVLTQPPSASGTPGQRVTISCTGSSSNIGNNDVSWYQQLPGTAPKLLIYSDSKRPSGVPDRFSGSKSGTSASLAISGLRSEDEADYYCGSWDYSLSGYVFGGGTKLTVLG",
    "CLASS": "Met"
  },
  {
    "BINDER": "SAIT-ANG-2-AB-8-A5 (IgG form) (antibody, V domains shown, Intact human antibody with human IgG1 constant region) VH: EVQLLESGGGLVQPGGSLRLSCAASGFTFSDYYMSWVRQAPGKGLEWVSGIYPSGGSTYYADSVKGRFTISRDNSKNTLYLQMNSLRAEDTAVYYCARDPSTLTYAGFDYWGQGTLVTVSS VL: QSVLTQPPSASGTPGQRVTISCSGSSSNIGNNYVTWYQQLPGTAPKLLIYADSHRPSGVPDRFSGSKSGTSASLAISGLRSEDEADYYCATWDYSLSGYVFGGGTKLTVLG",
    "CLASS": "Met"
  },
  {
    "BINDER": "SAIT-ANG-2-AB-2-E6 (IgG form) (antibody, V domains shown, Intact human antibody: VH cloned into a vector with the constant region and Fc region of human IgG1, VL into pFUSE2-CLIg-hl2 (light chain constant region)) VH: EVQLLESGGGLVQTGGSLRLSCAASGFTFSDYAMSWVRQAPGKGLEWVSAIYPDSGNKYYADSVKGRFTISRDNSKNTLYLQMNSLRAEDTAVYYCARHSSDPKVKSGYYDDGMDVWGQGTLVAVSS VL: QSVLTQPPSASGTPGQRVTISCSGSSSNIGNNAVNWYQQLPGTAPKLLIYADSNRPSGVPDRFSGSKSGTSASLAISGLRSEDEADYYCGSWDYSLSGYVFGGGTKLTVLG",
    "CLASS": "Not met"
  }
]
